# MEASURED_TARGET: human mAChR M1 (Homo sapiens)
# Sequence (P11229 whole entry): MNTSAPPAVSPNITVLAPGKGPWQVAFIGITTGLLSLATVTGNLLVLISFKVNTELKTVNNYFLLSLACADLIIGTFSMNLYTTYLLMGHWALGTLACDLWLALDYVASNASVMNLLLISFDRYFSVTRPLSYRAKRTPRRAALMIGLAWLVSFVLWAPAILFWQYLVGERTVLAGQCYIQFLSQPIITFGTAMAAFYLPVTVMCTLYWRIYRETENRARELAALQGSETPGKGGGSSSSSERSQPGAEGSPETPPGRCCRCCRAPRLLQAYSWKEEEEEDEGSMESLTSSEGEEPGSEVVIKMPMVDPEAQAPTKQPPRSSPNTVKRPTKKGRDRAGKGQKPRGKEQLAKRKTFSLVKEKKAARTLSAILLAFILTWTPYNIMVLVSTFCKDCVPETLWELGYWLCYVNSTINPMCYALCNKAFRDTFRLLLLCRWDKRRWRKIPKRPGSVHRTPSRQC
# EXPERIMENT_SUMMARY: mAChR M1 cell-based functional assay: calcium mobilization, positive allosteric modulator mode (increase in EC20 acetylcholine response)
# ASSAY_SETUP: Table 2; human M1; read-out: Human M1 Emax (%)
Provide the reported Emax of each item.
Answers are plain numbers, in %.

Reference set (10 entries):
O=C(NC1COC1)c1cc(Cc2ccc(-c3cncs3)cc2)c2sccc2n1 [Compound 402]	41.7
Cc1ccc(Cc2cc(C(=O)NC3COC3)nc3ccsc23)cn1 [Compound 258]	27.5
Cc1csc2c(Cc3ccc(-n4cccn4)cc3)cc(C(=O)N[C@H]3CCOC[C@@H]3O)nc12 [Compound 269]	77.6
Cn1ccc2nc(C(=O)NC3CC4(COC4)C3)cc(Cc3ccc(-c4cscn4)cc3)c21 [Compound 452]	71.9
Cn1ccc(-c2ccc(Cc3cc(C(=O)N[C@H]4CCOC[C@@H]4O)nc4ccsc34)cn2)n1 [Compound 353]	62.1
CC1(NC(=O)c2cc(Cc3ccc(-n4cccn4)cc3)c3sccc3n2)CCCNC1 (centres unmarked) [Compound 291]	64.3
Cc1nc(-c2ccc(Cc3cc(C(=O)N[C@H]4COCC[C@@H]4O)nc4ccsc34)cc2)cs1 [Compound 193]	85.7
Cn1ccc(-c2ccc(Cc3cc(C(=O)N[C@H]4CCCCC[C@@H]4O)nc4ccsc34)cn2)n1 [Compound 411]	57.6
CN1CCCC(NC(=O)c2cc(Cc3ccc(-n4cccn4)cc3)c3sccc3n2)C1 (centres unmarked) [Compound 442]	71.8
Cn1cc(-c2ccc(Cc3cc(C(=O)NC4CC5(COC5)C4)nc4ccn(C)c34)cn2)cn1 [Compound 471]	85.4

Take each entry in turn and give its Emax.
1. Cn1cc(-c2ccc(Cc3cc(C(=O)NCC4CCO4)nc4ccsc34)cn2)cn1 (centres unmarked) [Compound 338]
2. Cn1cc(-c2ccc(Cc3cc(C(=O)NC4CC(F)(F)C4)nc4ccsc34)cn2)cn1 [Compound 345]
3. Cn1cc(-c2ccc(Cc3cc(C(=O)N[C@H]4CCOC4)nc4ccsc34)cc2)nn1 [Compound 151]
4. O=C(NC1CCCNC1=O)c1cc(Cc2ccc(-c3cscn3)cc2)c2sccc2n1 (centres unmarked) [Compound 221]
5. Cc1ccc(Cc2cc(C(=O)N[C@@H]3CCC[C@H]3O)nc3c(C)csc23)cn1 [Compound 100]
6. O=C(c1cc(Cc2ccc(-n3cccn3)cc2)c2sccc2n1)N1CCNCC1 [Compound 83]
7. COCCCNC(=O)c1cc(Cc2ccc(-c3cncs3)cc2)c2sccc2n1 [Compound 404]
8. Cc1nn(C)c(C)c1-c1ccc(Cc2cc(C(=O)N[C@H]3CCC[C@@H]3O)nc3ccsc23)cc1 [Compound 242]

Output:
[93.3, 74.5, 88.4, 86.9, 87.5, 52.9, 56.7, 17.8]

Take each entry in turn and give its Emax.
1. Cc1ccc(Cc2cc(C(=O)Nc3cc(C)n[nH]3)nc3ccsc23)cn1 [Compound 69]
2. Cn1cc(-c2cc(F)c(Cc3cc(C(=O)N[C@H]4CCOC[C@@H]4O)nc4ccsc34)c(F)c2)cn1 [Compound 59]
3. CN1CC(NC(=O)c2cc(Cc3ccc(-n4cccn4)cc3)c3sccc3n2)C1 [Compound 435]
4. O=C(NC1CCOCC1)c1cc(Cc2ccc(-n3cccn3)cc2)c2sccc2n1 [Compound 228]

Output:
1. 80.3
2. 88.5
3. 76.9
4. 81.8

Reference for the values: patent US11111251B2
